Assign growth inhibition to each entry below.
Experiment: NCI Yeast Anticancer Drug Screen. Data for the mlh1 rad18 strain (AID 175)
Conditions: S. cerevisiae mlh1 rad18 strain growth inhibition; at 50.0 µM; active compounds read high
Compounds without any hit were thinned out: in the full panel of roughly 79,000, 15% have a hit.
One number for each entry, in %.

Worked examples, 5 compounds total:
                                   compound            measure  result_unit  assay_result
0                           Cc1ccc2nccnc2c1  growth inhibition            %         -1.85
1  CCc1ccc(/C(C#N)=C/c2ccc(N(C)CCC#N)cc2)cc1  growth inhibition            %         -23.9
2  CS(=O)(=O)OCC1COCC1COS(C)(=O)=O (stereo unspecified)  growth inhibition            %          16.6
3  O=C(O)c1c(F)c(F)c(-c2c(F)c(F)c(C(=O)O)c(C(=O)O)c2F)c(F)c1C(=O)O  growth inhibition            %         -6.45
4  O=C(c1ccccc1)C1C(c2ccccc2)SC(c2ccccc2)CC1(O)c1ccccc1 (stereo unspecified)  growth inhibition            %          13.3

With those in mind, consider the next compound.
For `CN(C)C(=S)c1cccc2ccccc12` , write its growth inhibition.
-8.45

* * *

Assign growth inhibition to each entry below.
Assay: NCI Yeast Anticancer Drug Screen. Data for the cln2 rad14 strain (AID 165);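 note: 0% = growth equal to vehicle treated cultures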
Settings: S. cerevisiae cln2 rad14 strain, at 50.0 µM, active compounds read high
Compounds without any hit were thinned out: in the full panel of roughly 79,000, 15% have a hit.
Give bare numbers, in %.

Worked examples, 4 compounds total:
>>> df
                                   compound  result_unit  assay_result
0   CCOC(=O)Nc1ccc2c(c1Cl)C(=O)c1ccccc1C2=O            %          5.65
1  CCCC(CO)OC(=O)Nc1ccc(-c2ccccc2)cc1 (stereo not drawn)            %           -56
2  Cc1oc(C)c2c(N=Nc3ccc([N+](=O)[O-])cc3[N+](=O)[O-])c3ccccc3c(O)c12            %         -27.6
3  NNC(=O)NN1C(=O)c2cc(S(=O)(=O)O)cc3c(N)c(S(=O)(=O)O)cc(c23)C1=O            %          6.35

Kindly give each listed record's growth inhibition.
1. O=C=Nc1ccc([N+](=O)[O-])cc1
2. CCOC(=O)C(C#N)=C1c2ccccc2Oc2ccccc21
3. CC(=O)CC(=O)Nc1ccc(Cc2ccc(Br)cc2)cc1
4. O=C(/C=C(\O)C(=O)O)/C=C(\O)c1ccc(Cl)cc1
5. Clc1ccc2cn[nH]c2c1
6. O=C(/C=C/c1ccsc1)c1ccsc1

1: -20.6; 2: -46; 3: 18.5; 4: -10.4; 5: 3.3; 6: 3.6

Kindly give each listed record's growth inhibition.
1. CC(C)NC(=O)OCc1c(COC(=O)NC(C)C)c(-c2ccc(Cl)c(Cl)c2)n2c1C[C@@H](O)C2
2. CCOP(=O)(CCP(=O)(CCP(=O)(OCC)OCC)CCP(=O)(OCC)OCC)OCC
3. Cc1cccc(C(N)=S)n1
4. O=C1NCCCCCC1S(=O)c1ccccc1 (stereo not drawn)
5. CCCCCCCC(=O)NCCCC(C)Nc1cc(OC)cc2cccnc12 (stereo not drawn)

[38.4, -30.2, 23.9, 28.6, 14.9]

Kindly give each listed record's growth inhibition.
1. COc1cccc(-c2nc(SCC(N)=O)[nH]c(=O)c2C#N)c1
2. C[C@]12C=CC(=O)C=C1[C@@H](F)C[C@H]1[C@@H]3CC[C@](O)(C(=O)CO)[C@@]3(C)C[C@H](O)[C@@]12F
3. Nc1ccc(OCC(O)CN2CCN(c3ccccc3)CC2)cc1 (stereo not drawn)
4. CCc1cccc(C(C)C)c1NC(=O)/C(=N\NC(N)=O)C(C(=O)OC)c1cnc2ccccc2n1 (stereo not drawn)
5. COc1ccc(Br)c(C=O)c1NC(C)=O
6. C=CCc1ccc(OC(=O)Nc2ccccc2)c(OC)c1
7. CC(C)CCN(CCCNc1c2c(nc3ccc(Cl)cc13)CCCC2)CCC(C)C
8. Clc1ccc(C2SC=Cc3ccccc32)cc1 (stereo not drawn)

1: 12; 2: 66.8; 3: -3.85; 4: 11.1; 5: -1.3; 6: 13.9; 7: -34.4; 8: 5.9

* * *

Test: NCI Yeast Anticancer Drug Screen. Data for the cln2 rad14 strain (AID 165);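 note: 0% = growth equal to vehicle treated cultures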
Conditions: S. cerevisiae cln2 rad14 strain, at 50.0 µM, active compounds read high
About 79,000 compounds went through this panel and 15% of them were active in at least one assay; those are over-represented in the sample as a whole.
Assign growth inhibition to each entry below.
Numbers only, in %.

Worked examples, 4 compounds total:
                                   compound            measure  assay_result
0                     CCCCn1c(=S)sc2ccccc21  growth inhibition         -50.5
1  C=Cc1c2[n-]c(c1C)/C=c1\[n-]/c(c(C)c1C=C)=C\c1[n-]c(c(CCC(=O)O)c1C)/C=c1\[n-]/c(c(C)c1CCC(=O)O)=C\2.[Co]  growth inhibition         -2.05
2  O=C1NC(Cc2cccc(I)c2)C(=O)N1c1ccccc1 (stereo not drawn)  growth inhibition          28.8
3  Cc1cc(C)c2c(=O)cc(-c3cccc(Cl)c3)[nH]c2n1  growth inhibition         -23.8

Kindly give each listed record's growth inhibition.
1. O=C1c2ccccc2C(=O)c2cc(Br)ccc21
2. COc1cccc2c(Cl)c3ccc(Cl)cc3nc12
3. O=C(O)c1ccccc1N1C(=O)c2ccccc2C1=O
4. Cc1cc(N2CCCCC2)nc2ccc(Cc3ccc4nc(N5CCCCC5)cc(C)c4c3)cc12

1: -110; 2: -39.1; 3: 8.2; 4: -16.4

Kindly give each listed record's growth inhibition.
1. Cc1ccc(C2=C(c3ccccc3)C(O)(c3ccccc3)C(c3ccccc3)=C2c2ccc(C)cc2)cc1
2. C[Si](C)(C)Nc1ncnc2c1ncn2[Si](C)(C)C
3. Cc1ccccc1C(=O)OCCBr
4. O=C(Nc1nc2ncn(CCI)c2c(=O)[nH]1)c1ccccc1
5. CC(C)(C)n1nc(C2CC2)cc1NC(=O)Nc1ccc(Cl)cc1
6. OC1CCC2CCCCC2C1 (stereo not drawn)
7. CC1C=CC(C)c2c(-c3ccccc3)oc(-c3ccccc3)c21 (stereo not drawn)
8. CCN(CC)CCNc1ccc2ncn3c4ccc(OC)cc4c(=O)c1c23

[15.8, -9.3, -27.1, -1.4, 8.85, -25.1, -2.6, 18.6]

* * *

Test: NCI Yeast Anticancer Drug Screen. Data for the bub3 strain (AID 167)
Details: S. cerevisiae bub3 mutant strain, at 50.0 µM
The panel holds about 79,000 compounds, 15% with a hit somewhere; the sample as a whole holds those more often. Calls of active or inactive are those of the source. Cut-off read from the data, not from the text of the source: active = growth inhibition above about 70%; inactive = the rest.
Outcome (select one): T = active, F = inactive

In [3]: df
Out[3]:
                                  compound  class_label
0  O=C1C=C(Sc2ccccc2)c2nccc3c2c1nc1ccccc13            F

Test call, this compound: `COc1ccc(CCc2cc(OC)c(O)c(OC)c2)cc1`
F

Test call, this compound: CC1=Nc2c(ccc3c2C(=O)c2ccccc2C3=O)NC(c2ccncc2)C1 (centres undefined)
F

Test call, this compound: `CCN(CC)CCCNc1[nH]ncc2c(C)c3nc4ccccc4c3cc12`
F

Test call, this compound: CCOC(=O)C(Cl)(NC(=O)c1ccc(F)cc1)C(F)(F)F (centres undefined)
F

Test call, this compound: C=C1CC2(C)C(=O)CCCC2OC1=O (centres undefined)
F

Test call, this compound: `CC(=O)Nc1cc2c(cc1[N+](=O)[O-])-c1ccc([N+](=O)[O-])cc1C2=O`
F

Test call, this compound: COc1ccc(NC(=O)CC(O)c2cccc(N)c2)cc1 (centres undefined)
F

Test call, this compound: CCOC1(NC(=O)N(C)C)C2CCCC21 (centres undefined)
F

Test call, this compound: `COc1ccc(Cc2ccccc2C(=O)c2ccc(OC)cc2)cc1`
F

Test call, this compound: COC1OC(C(C)O)C(O)C(O)C1O (centres undefined)
F

Test call, this compound: `CCCCCCCCCCCCCCCOc1cc(OC)ccc1-c1nnc(SC)s1`
F

Test call, this compound: COC(=O)C1C(c2ccccc2)C1(C#N)C#N (centres undefined)
F

Test call, this compound: `CCCC(=O)Nc1cn(COC)c(C(=O)N2C[C@H]3C[C@@]34C2=CC(=O)c2[nH]cc(C)c24)n1`
F

Test call, this compound: `COc1cc(OC)c(C(=O)c2ccccc2N)c(OC)c1`
F
